# normalized growth values compiled below
test: chemical genetic growth profiling, strain panel (AID 1159580);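 note: tested at 20 µM; growth read once vehicle control cultures reached saturation at 30 °C; 1 = growth at the plate median or of vehicle wells; lower values mean less growth of the strain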; conditions: S. cerevisiae deletion strains, growth OD, locus YPL240C, strain hsp82, hits give low values
The whole screen tested about 5,500 compounds, of which about 2,000 (36%) were called active. Roughly 18% stayed inconclusive and do not appear here. Some of the results follow.
measurement.label: normalized growth

1) CCCCNc1cc(C(=O)O)cc(S(N)(=O)=O)c1Oc1ccccc1    1
2) COc1cc2c(cc1OC)Cc1cc(OC)c(OC)cc1Cc1cc(OC)c(OC)cc1C2    1.02
3) COc1ccc2c(c1OC)C(=O)O[C@@H]2[C@H]1c2cc3c(cc2CCN1C)OCO3    0.995
4) COc1cc2c(cc1OC)C(=O)OC2    0.988
5) CC1=C(C/C=C(\C)CCC[C@H](C)CCC[C@H](C)CCCC(C)C)C(=O)c2ccccc2C1=O    0.97
6) COc1ccc2c(c1OC)C(=O)O[C@H]2[C@H]1c2cc3c(cc2CCN1C)OCO3    1
7) CC1=C(/C=C/C(C)=C/C=C/C(C)=C/C=C/C=C(C)/C=C/C=C(C)/C=C/C(=O)[C@]2(C)C[C@@H](O)CC2(C)C)C(C)(C)C[C@H](O)C1    1.01
8) CCN(CC)CCNC(=O)c1cc(Br)c(N)cc1OC    0.98
9) COC1=C(OC)C(=O)C(C/C=C(\C)CC/C=C(\C)CC/C=C(\C)CC/C=C(/C)CC/C=C(\C)CC/C=C(\C)CC/C=C(\C)CC/C=C(\C)CC/C=C(\C)CCC=C(C)C)=C(C)C1=O    0.982
